Reference source for all entries: PubChem BioAssay AID624125

target: Muscarinic acetylcholine receptor M4 (Homo sapiens) (UniProt P08173); assay: human M4 muscarinic receptor antagonists, primary screen, CHO cells, Fluo-8 calcium fluorescence (AID 624125); conditions: CHO-hM4 cells, ACh EC80, Fluo-8 calcium fluorescence; at 3 µM; stronger effect = higher value;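 note: 0% = acetylcholine EC80 with DMSO and 100% = DMSO without agonist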
Sequence (P08173 whole entry, looked up): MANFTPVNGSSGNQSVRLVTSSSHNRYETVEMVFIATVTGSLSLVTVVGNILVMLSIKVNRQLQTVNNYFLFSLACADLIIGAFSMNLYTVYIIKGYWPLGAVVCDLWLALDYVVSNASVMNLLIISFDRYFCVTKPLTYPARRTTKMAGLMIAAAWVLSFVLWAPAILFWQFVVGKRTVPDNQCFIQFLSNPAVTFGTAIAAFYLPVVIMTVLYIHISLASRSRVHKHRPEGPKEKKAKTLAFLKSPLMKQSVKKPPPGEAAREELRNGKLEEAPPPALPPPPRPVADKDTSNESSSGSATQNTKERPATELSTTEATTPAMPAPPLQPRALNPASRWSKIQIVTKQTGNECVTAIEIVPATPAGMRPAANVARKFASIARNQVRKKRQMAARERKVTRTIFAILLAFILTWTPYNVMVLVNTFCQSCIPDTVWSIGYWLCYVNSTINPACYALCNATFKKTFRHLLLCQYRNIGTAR
The whole screen tested about 360,000 compounds, of which about 2,600 (0.72%) were called active. The sample as a whole holds a higher share of actives than the screen did.
measured endpoint: inhibition (%)

| compound | numeric result |
| --- | --- |
| COC(=O)/C(=C1\Oc2ccc(C(C)(C)C)cc2S1)C(F)(F)F | -0.07 |
| O=C(Nc1ccc(F)cc1)C1CCN(C(=O)c2ccc([N+](=O)[O-])cc2)CC1 | -7.19 |
| C=CCOC(=O)C1=C(C)N=C2SCCC(=O)N2C1/C=C/c1ccccc1OC (centres undefined) | 1.49 |
| NS(=O)(=O)c1ccc(NC(=O)COC(=O)C2(c3ccc(F)cc3)CCCC2)cc1 | 1.71 |
| Clc1cccc(Cl)c1Cn1nnc(-c2cccs2)n1 | -3.16 |
| C[C@H]1[C@H]2c3nc4ccccc4n3C[C@H]1ON2C1CCCCC1 | -2.5 |
| C=CCC(NC(=O)Cc1ccccc1)C(=O)NCCC (centres undefined) | 0.03 |
| CCN(CC(=O)Nc1ccc(OC)cc1)C(=O)c1ccc(=O)n(Cc2ccccc2)n1 | 6.9 |
| CCCCC(=O)NNC(=S)NC(=O)C(c1ccccc1)c1ccccc1 | 59.9 |
| Cc1ccc(NC(=O)COC(=O)C2C3CC4OC(=O)C2C4C3)cc1Cl (centres undefined) | 15.9 |
| COc1ccc(C(=O)Oc2ccc(-c3nnco3)cc2)cc1S(=O)(=O)N1CCOCC1 | -11.2 |
| O=C(O)CC12CC3CC(C1)CC(n1ncc(NCc4ccc(F)cc4)c(Cl)c1=O)(C3)C2 | 4.05 |
| CCCCCCCCn1c2c(c(=N)c3c1CCC3)CCCC2 | 36.8 |
| O=C(CN1CCc2ccccc21)NC(c1ccccc1)c1ccccc1 | -1.96 |
| O=C(Cc1csc(Nc2nc(=S)[nH]c3ccccc23)n1)NCCCN1CCN(c2cccc(Cl)c2)CC1 | 32.6 |
| Cc1ccc(S(=O)(=O)N2CCOCC2)cc1C(=O)NC(=S)N(Cc1ccccc1)C(C)C | 0.9 |
| C=C(C)c1cccc(C(C)(C)NC(=O)NCCN(CC)CC)c1 | 61.6 |
| Cc1cc([N+](=O)[O-])c(=O)[nH]c1C | 3.71 |
| O=C(Cc1ccc(-n2c(=O)[nH]c3ccccc3c2=O)cc1)N1CCN(c2cccc(Cl)c2)CC1 | -5 |
| CC(C)c1cc(C(=O)N(C)C2CCCN(Cc3ccccc3F)C2)n(C)n1 (centres undefined) | -12.6 |
| O=C(CNS(=O)(=O)c1ccc(Br)s1)NCc1ccc2c(c1)OCO2 | 1.5 |
| COc1ccc(NC(=O)CCn2ccnc2)c(OC)c1 | 4.14 |
| CCCOCC(O)CC(CC)C(=O)NNC(=S)Nc1ccccc1 (centres undefined) | -8.64 |
| COc1cc(-c2noc(C3CCCN(S(=O)(=O)c4cccc(Cl)c4)C3)n2)cc(OC)c1OC (centres undefined) | 30.5 |
| C[N+]1(CC(O)COc2ccccc2)CCN(C(=O)c2ccc([N+](=O)[O-])cc2)CC1 (centres undefined) | -5.14 |
| O=C1C2(c3ccccc3)CN(CCCO)CC1(c1ccccc1)CN(CCCO)C2 | 4.09 |
| COCCn1c(SCC(=O)Nc2ccc(F)cc2F)nc2c(c1=O)SCC2 | -3.44 |
| Cc1ccc(C(=O)O)cc1S(=O)(=O)NCC1CCCO1 (centres undefined) | 0.46 |
| CCCN(CCc1ccccc1)C1CCc2c(O)cccc2C1 (centres undefined) | 50.8 |
| CN1CCN(C(=O)N2c3ccccc3CCc3ccccc32)CC1 | 51 |
| CCCCNCCS(=O)(=O)NCc1ccccc1 | 7.64 |
| CN(CCc1ccccn1)C(=O)c1ccc(OC2CCN(Cc3ccccn3)CC2)cc1 | 10.3 |
| COCCn1c(C)cc(C(=O)CN2c3cccc4cccc(c34)S2(=O)=O)c1C | -7.15 |
| C=C(C)c1cccc(C(C)(C)NC(=O)N2CCN(c3ncccn3)CC2)c1 | 6.08 |
| Cc1ccc2c(C)c(C(=O)N(C)Cc3ccncn3)oc2c1C | -3 |
| C=C(C)c1cccc(C(C)(C)NC(=O)NC2CCCC2)c1 | 4.8 |
| O=C(c1ccccc1F)N1CCN(S(=O)(=O)c2ccc(Br)cc2)CC1 | 3.23 |
| Cc1ccc(S(=O)(=O)N2CCN(C(=O)COC(=O)CNC(=O)c3ccc(C(C)(C)C)cc3)CC2)c(C)c1 | 1.62 |
| CN(CCC#N)c1ncnc2scc(-c3ccccc3)c12 | -1.83 |
| Cc1cccc(CSc2nnc(C)c(=O)n2N)c1 | -5.35 |
| Cc1ccc(OC(=O)c2c(C)nn(-c3ccccc3)c2C)cc1 | -5.29 |
| COc1cc2c3c(c1)/C(=C1/SC(=S)NC1=O)C(=O)N3C(C)(C)C=C2C | 9.66 |
| COc1ccccc1C1SCCN1C(=O)c1ccc([N+](=O)[O-])cc1 (centres undefined) | 57 |
| CN(CCc1ccccn1)C(=O)CCC1CCCN(Cc2ccccc2OC(F)F)C1 (centres undefined) | 31.4 |

---

molecular target: Muscarinic acetylcholine receptor M4 (Homo sapiens) (UniProt P08173); assay: human M4 muscarinic receptor antagonists, primary screen, CHO cells, Fluo-8 calcium fluorescence (AID 624125); settings: CHO-hM4 cells, ACh EC80, Fluo-8 calcium fluorescence; at 3 µM; stronger effect = higher value;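 note: 0% = acetylcholine EC80 with DMSO and 100% = DMSO without agonist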
In all, about 360,000 compounds went through this assay and about 2,600 (0.72%) were called active. What follows is part of a selection rich in actives, with near analogues and random picks from the rest.
Readings of inhibition for the listed compounds
measured endpoint: inhibition (%)

| compound | numeric result |
| --- | --- |
| CN1CCC[C@@H]1CCO[C@](C)(c1ccccc1)c1ccc(Cl)cc1 | 97.7 |
| CN(C)c1ccc(/C=C2\NC(=S)N(Cc3ccccc3)C2=O)cc1 | 44.5 |
| CN(C)c1ccc(CSc2ccccc2)cc1 | -16.2 |
| COC(=O)c1cc(N2CCNCC2)nc2ccccc12 | 6.45 |
| CC12CCCCC1=CC(=O)CC2 (stereo unspecified) | 2.52 |
| Cc1cc(=O)oc2cc(NC(=O)C3CC(=O)N(Cc4ccccc4)C3)ccc12 (stereo unspecified) | -0.59 |

---

Below is a list of entries, each paired with its recorded inhibition value.
biological target: Muscarinic acetylcholine receptor M4 (Homo sapiens) (UniProt P08173); assay: human M4 muscarinic receptor antagonists, primary screen, CHO cells, Fluo-8 calcium fluorescence (AID 624125); details: CHO-hM4 cells, ACh EC80, Fluo-8 calcium fluorescence; at 3 µM; stronger effect = higher value;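 note: 0% = acetylcholine EC80 with DMSO and 100% = DMSO without agonist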
The whole screen tested about 360,000 compounds, of which about 2,600 (0.72%) were called active. Only a selection was taken, and actives are over-represented in it overall.
measured endpoint: inhibition (%)

| compound | measured endpoint | unit of measurement | numeric result |
| --- | --- | --- | --- |
| Cc1cc(C)c(S(=O)(=O)c2cc(F)ccc2C)c(=O)[nH]1 | inhibition | % | 1.71 |
| COc1cc(C(=O)NCc2nnc(SCC(=O)Nc3nc4ccc(C)cc4s3)o2)cc(OC)c1OC | inhibition | % | 1.54 |
| Cc1nc2c(OCc3cccc(Cl)c3)cccn2c1N(C)CC1CC1 | inhibition | % | 8.19 |
| CC(C)CCNC(=O)c1[nH]c(C(F)(F)F)nc1-c1ccccc1 | inhibition | % | 2.39 |
| C=CCC1(CC=C)CCCN1C(=O)c1cc(COc2ccc(-n3cncn3)cc2)on1 | inhibition | % | 28.6 |
| COc1cc(C(=O)NCc2ccc(-n3cccc3)cc2)cc(OC)c1OC | inhibition | % | 9.05 |
| COc1cccc(CC(=NO)c2cccc(OC)c2)c1 | inhibition | % | -5.79 |
| CCc1nc2c(OCc3ccc(Cl)cc3Cl)cccn2c1N(C)C(=O)C(C)C | inhibition | % | -17.6 |
| C/C(=N\N1CCN(Cc2ccc(C)cc2)CC1)c1ccco1 | inhibition | % | 1.69 |
| CCCC(=O)N1CCC1(C)C(=O)Nc1ccc(-n2cncn2)cc1 (stereo unspecified) | inhibition | % | -7.42 |
| O=C(Nc1c2c(nn1-c1ccc(F)cc1)CS(=O)C2)C12CC3CC(CC(C3)C1)C2 (stereo unspecified) | inhibition | % | -0.1 |

---

molecular target: Muscarinic acetylcholine receptor M4 (Homo sapiens) (UniProt P08173); assay: human M4 muscarinic receptor antagonists, primary screen, CHO cells, Fluo-8 calcium fluorescence (AID 624125); conditions: CHO-hM4 cells, ACh EC80, Fluo-8 calcium fluorescence; at 3 µM; stronger effect = higher value;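 note: 0% = acetylcholine EC80 with DMSO and 100% = DMSO without agonist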
The campaign covered roughly 360,000 compounds. About 2,600 (0.72%) were called active. Only a selection was taken, and actives are over-represented in it overall.
measured endpoint: inhibition

| molecule | target desc | measured endpoint | result |
| --- | --- | --- | --- |
| CC(=O)Nc1ccccc1OC(C)C(=O)N1CCC(C)CC1 (stereo unspecified) | Muscarinic acetylcholine receptor M4 (Homo sapiens) (UniProt P08173) | inhibition | -7.56% (inactive) |
| Cc1sc2c(c1C)c(=O)n(-c1ccccc1)c(=O)n2CC(=O)NCC1CCCO1 (stereo unspecified) | Muscarinic acetylcholine receptor M4 (Homo sapiens) (UniProt P08173) | inhibition | 27.2% (active) |
| Cc1nn(-c2ccccc2)c2c1c(C)c(CCC(=O)NCC1CCCO1)c(=O)n2C (stereo unspecified) | Muscarinic acetylcholine receptor M4 (Homo sapiens) (UniProt P08173) | inhibition | -9.84% (inactive) |
| Cc1nn(CC(=O)NCC2CCCO2)c(=O)c2cc3ccccc3n12 (stereo unspecified) | Muscarinic acetylcholine receptor M4 (Homo sapiens) (UniProt P08173) | inhibition | -2.94% (inactive) |
| Cc1cccc(CSc2ccc(-c3cccs3)nn2)c1 | Muscarinic acetylcholine receptor M4 (Homo sapiens) (UniProt P08173) | inhibition | -4.51% (inactive) |
| FC(F)(F)c1cccc(-c2cc3ccccc3nc2N2CCCC2)c1 | Muscarinic acetylcholine receptor M4 (Homo sapiens) (UniProt P08173) | inhibition | 2.79% (inactive) |
| COC(=O)c1ccc2nc(-c3cccc(Br)c3)c(Cc3ccc(OC)cc3C)n2c1 | Muscarinic acetylcholine receptor M4 (Homo sapiens) (UniProt P08173) | inhibition | 1.2% (inactive) |
| CN1CCN(C2Cc3ccc(Cl)cc3Sc3ccc(F)cc32)CC1 (stereo unspecified) | Muscarinic acetylcholine receptor M4 (Homo sapiens) (UniProt P08173) | inhibition | 38.1% (active) |
| COC(=O)c1ccc2nc(-c3ccccc3)c(Cc3ccc(OC)cc3C)n2c1 | Muscarinic acetylcholine receptor M4 (Homo sapiens) (UniProt P08173) | inhibition | 11.4% (inactive) |
| CCCCNc1c(-c2cccc(Sc3ccc(OC)cc3)c2)nc2ccccn12 | Muscarinic acetylcholine receptor M4 (Homo sapiens) (UniProt P08173) | inhibition | 48.5% (active) |
| CCc1ccc(NC2Nc3cc(C)nn3S2)cc1 (stereo unspecified) | Muscarinic acetylcholine receptor M4 (Homo sapiens) (UniProt P08173) | inhibition | 4.8% (inactive) |
